Tested on: P94_40
protocol-notes: qHTS profiling for inhibitors of Plasmodium falciparum proliferation (AID 504749); further: nearly all actives have a fitted effect of over 60% in size
condition: P. falciparum in erythrocytes, SYBR Green DNA, 72 h; series mostly up to 28.7 µM
Results filed as inconclusive are left out. Active and inactive are the calls of the source. The call rests on the fitted dose curve; in most records, active means well fitted inhibition curve with a large enough effect; inconclusive means small, poorly fitted or top-dose-only effect; inactive means flat fitted curve, though single readings scatter.
parameter-measured: outcome

Example entries and their recorded answers appear below.
COc1ccc(-c2nc3ccc(C4=C(C)CC(=O)NN4)cc3[nH]2)cc1	inactive
CC(C)CC(NC(=O)C(COC(C)(C)C)NC(=O)C(Cc1ccc(O)cc1)NC(=O)C(CO)NC(=O)C(Cc1c[nH]c2ccccc12)NC(=O)C(Cc1cnc[nH]1)NC(=O)C1CCC(=O)N1)C(=O)NC(CCCN=C(N)N)C(=O)N1CCCC1C(=O)NNC(N)=O (stereo unspecified)	inactive
CCC(C)C1NC(=O)C(Cc2ccc(O)cc2)NC(=O)C(N)CSSCC(C(=O)N2CCCC2C(=O)NC(CC(C)C)C(=O)NCC(N)=O)NC(=O)C(CC(N)=O)NC(=O)C(CCC(N)=O)NC1=O (stereo unspecified)	inactive
CCC(Oc1ccccc1)C(=O)NC1C(=O)N2C1SC(C)(C)C2C(=O)O (stereo unspecified)	inactive
CC(C)C[C@H](NC(=O)[C@@H](Cc1c[nH]c2ccccc12)NC(=O)[C@@H](Cc1ccc(O)cc1)NC(=O)[C@@H](CO)NC(=O)[C@@H](Cc1c[nH]c2ccccc12)NC(=O)C(Cc1cnc[nH]1)NC(=O)C1CCC(=O)N1)C(=O)N[C@@H](CCCN=C(N)N)C(=O)N1CCC[C@@H]1C(=O)NCC(N)=O (stereo partly specified)	inactive

What outcome value was documented for this molecule, CC(=O)OCC1=C(C(=O)O)N2C(=O)C(NC(=O)Cc3ccccc3)C2SC1 (stereo unspecified) ?
inactive

Origin of values: PubChem BioAssay (NCATS)
